Hello, the source for this data is PubChem BioAssay (EPA / NIEHS), in case you need it.

- test name: ATG_E_Box_CIS: Attagene CIS-FACTORIAL HepG2 Assay for human Enhancer Box (E-box) (AID 2282936)
- condition details: HepG2 E-box cis-reporter transcription, actives raise or lower the signal
Activity calls are given as the source filed them. The calls were made as follows: active = hit-call score of the fitted dose curve at least 0.9, where 1 is the maximum; inactive = score below 0.9.
Outcome codes: t (active), f (inactive)

{"columns": ["compound", "answer label"],
 "data": [
  ["O=Cc1ccccc1C=O", "f"],
  ["Cc1c(C)c2c(c(C)c1O)CCC(C)(COc1ccc(CC3SC(=O)NC3=O)cc1)O2 (stereo not drawn)", "f"],
  ["S=c1[nH]c2ccccc2s1", "f"],
  ["CCc1nc(N)nc(N)c1-c1ccc(Cl)cc1", "f"],
  ["CC(C)c1cccc(C(C)C)c1", "f"],
  ["COC(=O)[C@H]1[C@H]2C[C@@H]3c4[nH]c5cc(OC)ccc5c4CCN3C[C@H]2C[C@@H](OC(=O)c2cc(OC)c(OC)c(OC)c2)[C@@H]1OC", "t"],
  ["CCCC(=O)O", "f"],
  ["O=C(O)c1[nH]n(-c2ccc(S(=O)(=O)O)cc2)c(=O)c1N=Nc1ccc(S(=O)(=O)O)cc1", "f"],
  ["CC(COCC(C)OC(=O)c1ccccc1)OC(=O)c1ccccc1 (stereo not drawn)", "f"],
  ["CC(C)OC(=O)C(C)(C)Oc1ccc(C(=O)c2ccc(Cl)cc2)cc1", "f"],
  ["NC=O", "f"],
  ["Cc1cc(SC2=C(O)C[C@@](CCc3ccc(N)cc3)(C(C)C)OC2=O)c(C(C)(C)C)cc1CO", "f"],
  ["CCCCCCC(C=O)=Cc1ccccc1", "f"],
  ["CC1(C)C(=O)NC(=O)N1CO", "f"],
  ["CC(N)=O", "f"],
  ["CCCCCCC(CCCCCCCCCCC(=O)OCC(COC(C)=O)OC(C)=O)OC(C)=O (stereo not drawn)", "f"],
  ["CS(=O)(=O)c1ccc([C@@H](C[C@H]2CCC(=O)C2)C(=O)Nc2cnccn2)cc1Cl", "f"],
  ["CC(=O)OC1CC(C)OC(C)O1 (stereo not drawn)", "f"]
]}

---

- Read-out: Thrombomodulin, THBD (gene 7056)
- test name: BSK_CASM3C_Thrombomodulin: BioMAP Diversity Plus: CASM3C Assay for Thrombomodulin Biomarker Activity (AID 2283051);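 also: thrombomodulin protein level measured by ELISA 24 h after dosing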
- condition details: primary human coronary artery smooth muscle cells; actives raise or lower the signal
The source made the active and inactive calls. The calls were made as follows: active = hit-call score of the fitted dose curve at least 0.9, where 1 is the maximum; inactive = score below 0.9.
quantity kind: outcome

{"columns": ["compound structure", "quantity kind", "observed"],
 "data": [
  ["CC(=O)S[C@H](C(=O)N[C@H]1Cc2ccccc2[C@H]2CCC[C@@H](C(=O)O)N2C1=O)C(C)C", "outcome", "inactive"],
  ["CN(C)C(=O)NC1(c2ccccc2)CCN(CCC[C@]2(c3ccc(Cl)c(Cl)c3)CCCN(C(=O)c3ccccc3)C2)CC1", "outcome", "inactive"],
  ["COc1ccc(C(=O)Nc2nc3ccccc3c(NCc3ccccc3)c2C#N)cc1", "outcome", "inactive"]
]}

---

- test name: APR_HepG2_MitoticArrest_24hr: Apredica 24-hour HepG2 Assay for Mitotic Arrest (AID 2282910)
- condition details: high-content imaging, actives raise or lower the signal
Activity calls are given as the source filed them. The calls were made as follows: active = hit-call score of the fitted dose curve at least 0.9, where 1 is the maximum; inactive = score below 0.9.
Outcome codes: active, inactive

{"columns": ["compound", "answer label"],
 "data": [
  ["CC1=C(C)S(=O)(=O)CCS1(=O)=O", "inactive"],
  ["Cc1occc(=O)c1O", "inactive"],
  ["CC(C)c1cccc(C(C)C)c1NC(=O)NS(=O)(=O)c1cc(C(C)(C)O)co1", "inactive"],
  ["CCCCCCC(CCCCCCCCCCC(=O)OCC(COC(C)=O)OC(C)=O)OC(C)=O (stereo not drawn)", "inactive"],
  ["C/C=C/C=C/C(=O)O", "inactive"],
  ["CCc1nc(N)nc(N)c1-c1ccc(Cl)cc1", "inactive"],
  ["COc1ccc(OC(F)(F)F)cc1CN[C@H]1CCCN[C@H]1c1ccccc1", "active"],
  ["O=C(O)CC(O)(CC(=O)O)C(=O)O", "inactive"],
  ["CC(=O)O", "active"],
  ["CCCCCCCCCCCCCCCCO", "inactive"],
  ["CCCCCCCCCC[N+](C)(C)[O-]", "inactive"],
  ["O=NO", "inactive"],
  ["CCCCC(CC)COC(=O)CCCCCCCC(=O)OCC(CC)CCCC (stereo not drawn)", "inactive"],
  ["CC(=O)OC1CC(C)OC(C)O1 (stereo not drawn)", "inactive"],
  ["CS(=O)(=O)c1ccc([C@@H](C[C@H]2CCC(=O)C2)C(=O)Nc2cnccn2)cc1Cl", "inactive"],
  ["CCC(C)N(C)C(=O)c1cc2ccccc2c(-c2ccccc2Cl)n1 (stereo not drawn)", "active"],
  ["Cn1cnc2c1c(=O)[nH]c(=O)n2C", "inactive"],
  ["S=c1[nH]c2ccccc2s1", "inactive"]
]}

---

- Read-out: Urokinase-type plasminogen activator receptor (uPAR), PLAUR (gene 5329)
- test name: BSK_4H_uPAR: BioMAP Diversity Plus: 4H Assay for Urokinase-type plasminogen activator receptor (uPAR) Biomarker Activity (AID 2283030)
- condition details: primary human endothelial cells (HUVEC); actives raise or lower the signal
The source made the active and inactive calls. The calls were made as follows: active = hit-call score of the fitted dose curve at least 0.9, where 1 is the maximum; inactive = score below 0.9.
Outcome codes: True = active, False = inactive

{"columns": ["compound", "answer label"],
 "data": [
  ["CC(=O)O", "False"],
  ["CC(N)=O", "False"],
  ["COC(=O)CCCC(=O)OC", "False"],
  ["O=C(N[C@@H](c1ccccc1)[C@@H]1CCCCN1)c1cccc(C(F)(F)F)c1Cl", "False"],
  ["O=Cc1ccccc1C=O", "False"],
  ["CCCCC(CC)COP(=O)(OCC(CC)CCCC)OCC(CC)CCCC (configuration not stated)", "True"],
  ["CCC(C)N(C)C(=O)c1cc2ccccc2c(-c2ccccc2Cl)n1 (configuration not stated)", "False"]
]}

---

- test name: APR_HepG2_StressKinase_72hr: Apredica 72-hour HepG2 Assay for Stress Kinase (AID 2282921)
- condition details: HepG2 stress kinase (phospho-c-Jun) imaging, actives raise or lower the signal
Activity calls are given as the source filed them. Rule for the calls: active = hit-call score of the fitted dose curve at least 0.9, where 1 is the maximum; inactive = score below 0.9.
Outcome codes: active, inactive

{"columns": ["molecule", "answer label"],
 "data": [
  ["NCCOCCOCCN", "inactive"],
  ["O=C1O[C@H]([C@H](O)CO)C(O)=C1O", "inactive"],
  ["O=[Si]=O", "inactive"],
  ["Oc1ccccc1O", "inactive"],
  ["CCCCCCCCCC[N+](C)(C)[O-]", "inactive"],
  ["CC(=O)O[C@]1(C(C)=O)CC[C@H]2[C@@H]3C=C(Cl)C4=CC(=O)[C@@H]5C[C@@H]5[C@]4(C)[C@H]3CC[C@@]21C", "inactive"],
  ["OCC(CO)n1cnc(-c2ccc(F)cc2)c1-c1ccnc(Oc2ccccc2)n1", "inactive"],
  ["CCCC(=O)O", "inactive"],
  ["CC(C)(C)c1ccccc1", "inactive"],
  ["O=NO", "inactive"],
  ["C=CCc1ccc(OC)c(OC)c1", "inactive"],
  ["COC(=O)CCC(=O)OC", "inactive"],
  ["Cc1cc(SC2=C(O)C[C@@](CCc3ccc(N)cc3)(C(C)C)OC2=O)c(C(C)(C)C)cc1CO", "inactive"],
  ["CCOCCOCCO", "inactive"],
  ["CN(C)C(=O)NC1(c2ccccc2)CCN(CC[C@@]2(c3ccc(F)c(F)c3)CN(C(=O)c3ccccc3)CCO2)CC1", "active"],
  ["C#CC(O)C(CC)CCCC (stereo unspecified)", "inactive"],
  ["CCCCC(CC)CO (stereo unspecified)", "inactive"],
  ["Nc1nc(Cl)nc2c1ncn2[C@H]1C[C@H](O)[C@@H](CO)O1", "inactive"],
  ["Cc1c(C)c2c(c(C)c1O)CCC(C)(COc1ccc(CC3SC(=O)NC3=O)cc1)O2 (stereo unspecified)", "active"],
  ["COC(=O)[C@H]1[C@H]2C[C@@H]3c4[nH]c5cc(OC)ccc5c4CCN3C[C@H]2C[C@@H](OC(=O)c2cc(OC)c(OC)c(OC)c2)[C@@H]1OC", "inactive"],
  ["CCc1cc(C2=C(C(=O)O)N(c3ccccc3C(F)(F)F)S(=O)(=O)c3ccccc32)cc2c1OCO2", "inactive"]
]}

---

- assayed system: Retinoic acid receptor RXR-alpha (Homo sapiens)
- test name: OT_NURR1_NURR1RXRa_1440: Odyssey Thera (OT) 24-hour HEK293T Protein Complementation Assay for Nurr1/retinoid X receptor (RXR) (AID 2283386)
Records with an inconclusive call do not appear. Activity calls are given as the source filed them. Rule for the calls: active = hit-call score of the fitted dose curve at least 0.9, where 1 is the maximum; inconclusive = response in the unintended direction; inactive = score below 0.9.
Outcome codes: Yes (active), No (inactive)

{"columns": ["molecule", "answer label"],
 "data": [
  ["CCc1nc(N)nc(N)c1-c1ccc(Cl)cc1", "No"],
  ["CCCCC(CC)COC(=O)CCCCCCCC(=O)OCC(CC)CCCC (centres undefined)", "No"],
  ["CC(C)(C)c1ccccc1", "No"],
  ["O=Cc1ccccc1C=O", "No"],
  ["O=C1OC(c2ccc(O)cc2)(c2ccc(O)cc2)c2ccccc21", "No"],
  ["CCCCCCC(CCCCCCCCCCC(=O)OCC(COC(C)=O)OC(C)=O)OC(C)=O (centres undefined)", "No"],
  ["Cc1c(C)c2c(c(C)c1O)CCC(C)(COc1ccc(CC3SC(=O)NC3=O)cc1)O2 (centres undefined)", "No"],
  ["OCC(CO)n1cnc(-c2ccc(F)cc2)c1-c1ccnc(Oc2ccccc2)n1", "No"],
  ["O=C(NS(=O)(=O)/C=C/c1cccs1)c1ccc(F)cc1Br", "Yes"],
  ["CCCCc1nc2cccnc2n1Cc1ccc(-c2ccccc2-c2nnn[nH]2)cc1", "Yes"],
  ["CC(=O)S[C@H](C(=O)N[C@H]1Cc2ccccc2[C@H]2CCC[C@@H](C(=O)O)N2C1=O)C(C)C", "No"],
  ["CC(C)OC(=O)C(C)(C)Oc1ccc(C(=O)c2ccc(Cl)cc2)cc1", "No"],
  ["CC(=O)OC1CC(C)OC(C)O1 (centres undefined)", "No"],
  ["CC(=O)O[C@]1(C(C)=O)CC[C@H]2[C@@H]3C=C(Cl)C4=CC(=O)[C@@H]5C[C@@H]5[C@]4(C)[C@H]3CC[C@@]21C", "Yes"],
  ["CCCC(=O)O", "No"],
  ["S=c1[nH]c2ccccc2s1", "No"],
  ["C=CCc1ccc(OC)c(OC)c1", "No"],
  ["O=C1NC(=O)C(c2ccccc2)(c2ccccc2)N1", "No"],
  ["CCCC[C@H]1CN(CC2CCOCC2)C(=O)OC12CCN(C1(C)CCN(C(=O)c3c(C)ncnc3C)CC1)CC2", "No"],
  ["CCCCCCC(C=O)=Cc1ccccc1", "No"],
  ["O=C(O)c1[nH]n(-c2ccc(S(=O)(=O)O)cc2)c(=O)c1N=Nc1ccc(S(=O)(=O)O)cc1", "No"],
  ["Oc1ccc(O)cc1", "Yes"],
  ["CCCCCCCC(=O)OC", "No"],
  ["CCc1cc(C2=C(C(=O)O)N(c3ccccc3C(F)(F)F)S(=O)(=O)c3ccccc32)cc2c1OCO2", "No"],
  ["CCOCCOCCO", "No"],
  ["Cn1cnc2c1c(=O)[nH]c(=O)n2C", "No"],
  ["CC(C)c1cccc(C(C)C)c1", "No"],
  ["O=C1c2c(O)cccc2Cc2cccc(O)c21", "No"],
  ["CCC(C)N(C)C(=O)c1cc2ccccc2c(-c2ccccc2Cl)n1 (centres undefined)", "No"]
]}
